// data source = patent US20250282874A1

kon values, listed per item
- assayTarget: T1, human PD-L1-Fc (human, UniProt Q9NZQ7 19-239)
- T1 construct: also called hPD-L1-Fc; human PD-L1-Fc (Sino Biological, 70110-D02H); not shown: Fc part
- T1 sequence (Q9NZQ7 19-239 limits assumed): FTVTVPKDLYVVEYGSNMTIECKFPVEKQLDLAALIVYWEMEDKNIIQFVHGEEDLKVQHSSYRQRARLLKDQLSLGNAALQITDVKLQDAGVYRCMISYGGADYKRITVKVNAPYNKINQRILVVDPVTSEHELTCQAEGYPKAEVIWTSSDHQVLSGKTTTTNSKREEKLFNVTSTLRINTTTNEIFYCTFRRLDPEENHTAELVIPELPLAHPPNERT
- methodNotes: BLI; PD-L1-Fc loaded on the sensor, scFv in solution
Your answer is read as M⁻¹ s⁻¹, so omit the unit and give the number.

// known answers, use as guide
| binder | valueObserved |
| --- | --- |
| 4B6 scFv variant L-CDR1-3 (scFv, also called 4B6-L-CDR1-3) scFv: DIQMTQSPSSLSASVGDRVTITCKASQNVKGAVAWYQQKPGKAPKLLIYSASNRYTGVPSRFSGSGSGTDFTLTISSLQPEDIATYYCQQYSNYPTFGQGTKLEIKGGGGSGGGGSGGGGSQVQLVQSGAEVKKPGASVKVSCKASGYVFTDYYMNWVRQAPGQSLEWMGDINPNNAGTSYNHKFKGRVTVTVDKSISTAYMELSRLRSDDTAVYYCVKWGDGPFAYWGQGTLVTVSS | 91100 |
| 4B6-HgLa scFv (wild-type sequence for affinity maturation) (scFv, written VL-linker-VH; also called L-CDR1-WT; L-CDR2-WT) scFv: DIQMTQSPSSLSASVGDRVTITCKASQNVGAAVAWYQQKPGKAPKLLIYSASNRYTGVPSRFSGSGSGTDFTLTISSLQPEDIATYYCQQYSNYPTFGQGTKLEIKGGGGSGGGGSGGGGSQVQLVQSGAEVKKPGASVKVSCKASGYVFTDYYMNWVRQAPGQSLEWMGDINPNNAGTSYNHKFKGRVTVTVDKSISTAYMELSRLRSDDTAVYYCVKWGDGPFAYWGQGTLVTVSS | 35800 |

Then there is this binder:
## Task Using known records, supply kon for 4B6 scFv variant L-CDR1-1 (scFv, also called 4B6-L-CDR1-1) scFv: DIQMTQSPSSLSASVGDRVTITCKASQNVGAIVAWYQQKPGKAPKLLIYSASNRYTGVPSRFSGSGSGTDFTLTISSLQPEDIATYYCQQYSNYPTFGQGTKLEIKGGGGSGGGGSGGGGSQVQLVQSGAEVKKPGASVKVSCKASGYVFTDYYMNWVRQAPGQSLEWMGDINPNNAGTSYNHKFKGRVTVTVDKSISTAYMELSRLRSDDTAVYYCVKWGDGPFAYWGQGTLVTVSS
## Result 41200
